# tgt: T1, human GIP receptor (human), P48546
# T1 chain: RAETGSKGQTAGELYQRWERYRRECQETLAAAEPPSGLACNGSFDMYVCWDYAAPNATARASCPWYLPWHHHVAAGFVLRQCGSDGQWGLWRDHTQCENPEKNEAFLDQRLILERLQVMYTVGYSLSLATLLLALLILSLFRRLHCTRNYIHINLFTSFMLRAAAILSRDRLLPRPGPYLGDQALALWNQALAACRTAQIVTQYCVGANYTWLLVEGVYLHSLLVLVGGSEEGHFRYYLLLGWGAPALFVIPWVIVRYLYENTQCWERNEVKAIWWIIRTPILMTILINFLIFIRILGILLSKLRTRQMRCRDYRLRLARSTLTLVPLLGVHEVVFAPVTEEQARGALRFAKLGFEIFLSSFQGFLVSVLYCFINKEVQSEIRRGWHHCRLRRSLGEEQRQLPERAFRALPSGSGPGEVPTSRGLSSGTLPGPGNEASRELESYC
# experimental_protocol: 125I-GIP displacement, HEK-GIPR
measured_property: pIC50
Give bare numbers, as −log10 of the molar value.

GYAEGTFISDYSIAMDKIHQQDFVNWLLAQKPSSGAPPPS (modifications not checked) [0601GIP4178] | 9.77

Now look at this one.
Return reported pIC50; argument: YAEGTFISDYSIAMDKIHQQDFVNWLLAQKPKKIAYS (modifications not checked) [0601GIP4817] 9.35
